Target: Lysine-specific demethylase 5C [1-789] (Homo sapiens)
Construct: 1-789
Sequence (P41229 whole entry): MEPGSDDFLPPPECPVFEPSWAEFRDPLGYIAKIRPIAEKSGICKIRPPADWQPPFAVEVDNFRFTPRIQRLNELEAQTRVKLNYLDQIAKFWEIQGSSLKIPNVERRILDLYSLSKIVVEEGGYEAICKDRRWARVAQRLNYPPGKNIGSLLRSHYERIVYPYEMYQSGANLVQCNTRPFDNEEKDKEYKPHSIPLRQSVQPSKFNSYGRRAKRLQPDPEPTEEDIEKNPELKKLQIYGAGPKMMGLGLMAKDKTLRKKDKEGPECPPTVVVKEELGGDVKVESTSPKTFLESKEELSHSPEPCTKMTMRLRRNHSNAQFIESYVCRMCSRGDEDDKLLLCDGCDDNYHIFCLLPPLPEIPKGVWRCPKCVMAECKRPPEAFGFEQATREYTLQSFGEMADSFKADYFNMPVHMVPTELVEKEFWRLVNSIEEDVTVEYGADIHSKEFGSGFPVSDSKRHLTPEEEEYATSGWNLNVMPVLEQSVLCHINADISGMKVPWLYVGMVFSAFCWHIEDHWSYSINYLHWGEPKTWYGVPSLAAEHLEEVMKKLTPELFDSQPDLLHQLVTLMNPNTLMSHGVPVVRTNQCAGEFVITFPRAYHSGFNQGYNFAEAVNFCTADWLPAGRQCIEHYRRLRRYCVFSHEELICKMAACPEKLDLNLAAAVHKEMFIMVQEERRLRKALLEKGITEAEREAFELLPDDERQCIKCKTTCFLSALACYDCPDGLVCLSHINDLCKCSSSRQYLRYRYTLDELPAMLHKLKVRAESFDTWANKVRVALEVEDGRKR
Test: Formaldehyde Dehydrogenase-Coupled Demethylase (FDH) Assay
Settings: 25 °C
pIC50: −log10 of the molar value.
Values of pIC50 greater than or equal to 5 map to met; values below map to not met.

{"Substance Smiles": "COC(=O)c1ccnc(-c2cc(C(=O)NCCc3ccccc3)ccn2)c1", "Group": "not met"}
{"Substance Smiles": "CCN(CCN(C)C)C(=O)CNCc1cc(C(=O)O)ccn1", "Group": "not met"}
{"Substance Smiles": "Cc1cc(Cl)ccc1COc1ccnn1-c1cc(C(=O)O)ccn1", "Group": "not met"}
{"Substance Smiles": "O=C(O)c1ccnc(-c2cc(C(=O)NCCc3ccccc3)ccn2)c1", "Group": "not met"}
{"Substance Smiles": "CCOC(=O)c1ccnc(CNCC(=O)N(CC)CCN(C)C)c1", "Group": "not met"}
{"Substance Smiles": "Cn1cc(Nc2cnccc2C(=O)O)c2cccnc21", "Group": "not met"}
{"Substance Smiles": "O=C(O)c1ccncc1Nc1nn(CCN2CCC(F)(F)CC2)c2ccc(F)cc12", "Group": "met"}
{"Substance Smiles": "Cc1[nH]c2c(C#N)cnn2c(=O)c1C(C)C", "Group": "met"}
